// values below are reported glycan array binding signal (z-score)
target: Fuc(a1-3)[Gal(b1-4)]GlcNAc(b1-2)Man(a1-3)[Fuc(a1-3)[Gal(b1-4)]GlcNAc(b1-2)Man(a1-6)]Man(b1-4)GlcNAc(b1-4)GlcNAc; assay: glycan array binding signal (z-score within array); higher = stronger binding; settings: glycan notation: IUPAC condensed, linker removed
The entries come from a sample that favours the strongest signals as a whole.

>  <Binder>
DC-SIGN (Canis lupus), XP_853402 (protein) AGLCRPCPWKWELFQESCYFFSQTQNTWKESISACQNLRAQLVIINSTEEQKFLKSWNTRNNQRTWIGLSDHHNEGSWKWVDNTPLQLSFWKEGEPNNHGDEDCVELYSDGWNDNRCSTENFWICKKPSSPCPGPGLNDIFEAQKIEWHE

>  <glycan array binding signal (z-score)>
-0.157

$$$$
>  <Binder>
DrGal9 (Danio rerio) (protein) MAFYQQPPYYNPRIPFSGPIQGGLQDGKSIIISGRVLPGANRFHVNLQCGSHSEANVALHFNPRYEDTDYVVNNSYLNRTWGSEERKYESPFAQGQTFTLQILVAQDKYKISTNGRHFMDYKHRIPFTQVDTVAVEGMVEVNSVAFQNPAGFIPPQAGYAPQYAVPPGCGFPAFPSAPNYTIPHKTVMNGGLHPGKNIVINGVVNPNAKSIIFNLCYRSGIAFHYNPRFDENVVVRNTNQMEKWGAEERFGGLPFHKGQPFQVTISCNPQHYNVFVNGKQEHTYKHRYTKLNDIDILEICGDLQLTSVQA

>  <glycan array binding signal (z-score)>
-0.409

$$$$
>  <Binder>
DC-ASGPR S+GEE (Homo sapiens) (protein) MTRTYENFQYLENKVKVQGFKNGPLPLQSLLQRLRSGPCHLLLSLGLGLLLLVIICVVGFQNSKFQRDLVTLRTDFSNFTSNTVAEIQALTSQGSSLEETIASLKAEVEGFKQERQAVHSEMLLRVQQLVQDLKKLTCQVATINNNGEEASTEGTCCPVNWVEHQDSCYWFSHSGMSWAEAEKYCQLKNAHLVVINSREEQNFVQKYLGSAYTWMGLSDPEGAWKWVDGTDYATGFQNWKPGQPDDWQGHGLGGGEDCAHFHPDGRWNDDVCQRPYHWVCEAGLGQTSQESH

>  <glycan array binding signal (z-score)>
-0.015

$$$$
